- TARGET_UNDER_TEST: Acetylcholinesterase (Homo sapiens) (UniProt P22303)
- Sequence (P22303 whole entry, looked up): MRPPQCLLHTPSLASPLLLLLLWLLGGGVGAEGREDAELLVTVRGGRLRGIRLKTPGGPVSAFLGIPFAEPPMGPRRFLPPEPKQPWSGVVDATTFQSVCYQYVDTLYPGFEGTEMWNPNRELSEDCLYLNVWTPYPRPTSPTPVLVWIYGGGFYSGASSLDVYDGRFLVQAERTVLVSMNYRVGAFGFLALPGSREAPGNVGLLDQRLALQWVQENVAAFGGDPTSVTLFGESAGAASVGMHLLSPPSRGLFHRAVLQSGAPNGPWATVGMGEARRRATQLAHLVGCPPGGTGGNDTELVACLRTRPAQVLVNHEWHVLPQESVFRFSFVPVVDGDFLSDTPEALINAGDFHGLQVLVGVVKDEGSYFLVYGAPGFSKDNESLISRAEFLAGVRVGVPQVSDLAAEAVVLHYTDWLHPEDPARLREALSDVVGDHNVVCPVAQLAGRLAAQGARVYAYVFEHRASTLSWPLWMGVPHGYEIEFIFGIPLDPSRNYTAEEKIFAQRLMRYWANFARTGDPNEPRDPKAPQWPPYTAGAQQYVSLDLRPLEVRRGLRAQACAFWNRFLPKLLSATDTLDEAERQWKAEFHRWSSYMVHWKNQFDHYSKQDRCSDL
- MEASUREMENT_DESCRIPTION: Acetylcholinesterase (AChE) small molecule antagonists: enzyme-based qHTS assay (AID 1347397); further: nearly all actives have a fitted effect of over 55% in size
- APPLIED_CONDITIONS: AChE enzyme activity inhibition; series mostly up to 115 µM
Activity calls are given as the source filed them. The call rests on the fitted dose curve.

{"COMPOUND": "Clc1cnc(Oc2ccc(Oc3ncc(Cl)cc3Cl)cc2)c(Cl)c1", "outcome": "inactive"}
{"COMPOUND": "Cc1ccc(O)c(C)c1", "outcome": "inactive"}
{"COMPOUND": "COP(=S)(OC)SCN1C(=O)c2ccccc2C1=O", "outcome": "inactive"}
{"COMPOUND": "FC(F)(F)c1ccc(Cl)cc1", "outcome": "inactive"}
{"COMPOUND": "N#Cc1cccc(C#N)c1", "outcome": "inactive"}
{"COMPOUND": "CC(C)CCCCCCOC(=O)c1ccccc1C(=O)OCCCCCCC(C)C", "outcome": "inactive"}
{"COMPOUND": "COc1nc(NC(C)C)nc(NC(C)C)n1", "outcome": "inactive"}
{"COMPOUND": "Nc1ncc([N+](=O)[O-])s1", "outcome": "inactive"}
{"COMPOUND": "CN(C)C(=O)C(c1ccccc1)c1ccccc1", "outcome": "inactive"}
{"COMPOUND": "CCCOC(=O)c1ccccc1C(=O)OCCC", "outcome": "inactive"}
{"COMPOUND": "CCNc1nc(Cl)nc(NC(C)C)n1", "outcome": "inactive"}
{"COMPOUND": "O=[N+]([O-])c1ccc(Cl)cc1", "outcome": "inactive"}
{"COMPOUND": "Nc1ccc([As](=O)(O)O)cc1", "outcome": "inactive"}
{"COMPOUND": "Oc1c(Br)cc(Br)cc1Br", "outcome": "inactive"}
{"COMPOUND": "Sc1ccccc1", "outcome": "inactive"}
{"COMPOUND": "ClCCOCCCl", "outcome": "inactive"}
{"COMPOUND": "COC(C)(C)CCCC(C)C/C=C/C(C)=C/C(=O)OC(C)C (stereo not given)", "outcome": "inactive"}
{"COMPOUND": "Cc1ccc(N=C=O)cc1N=C=O", "outcome": "inactive"}
{"COMPOUND": "CN(C)NC(=O)CCC(=O)O", "outcome": "inactive"}
{"COMPOUND": "N#CN=C(N)N", "outcome": "inactive"}
{"COMPOUND": "CC[N+](=O)[O-]", "outcome": "inactive"}
{"COMPOUND": "COP(=S)(OC)Oc1ccc(SC)c(C)c1", "outcome": "inactive"}
{"COMPOUND": "CC(C)(C)C(=O)CCl", "outcome": "inactive"}
{"COMPOUND": "CSc1nnc(C(C)(C)C)c(=O)n1N", "outcome": "inactive"}
{"COMPOUND": "CNCC(O)c1ccc(O)cc1 (stereo not given)", "outcome": "inactive"}
{"COMPOUND": "C/C=C/c1ccc2c(c1)OCO2", "outcome": "inactive"}
{"COMPOUND": "CN(C)C(=O)Nc1cccc(C(F)(F)F)c1", "outcome": "inactive"}
{"COMPOUND": "Cc1cc(O)ccc1Cl", "outcome": "inactive"}
{"COMPOUND": "C[C@H]1C(=O)O[C@@H]2CCN3CC=C(COC(=O)[C@](C)(O)[C@]1(C)O)[C@H]23", "outcome": "inactive"}
{"COMPOUND": "OC[C@@H](O)[C@H]1O[C@@H]2O[C@H](C(Cl)(Cl)Cl)O[C@@H]2[C@H]1O", "outcome": "inactive"}

Numbers sourced from PubChem BioAssay (Tox21).
